inhibition at 6 µM values, listed per item
Molecular target: MycC protein (c-myc) (Homo sapiens, UniProt P01106)
Construct: either 2×10^6 of L-363 (human leukemia cell line) cells; endogenous in cells; host or cells: L-363 / L363 human leukemia cells
Sequence (P01106 whole entry): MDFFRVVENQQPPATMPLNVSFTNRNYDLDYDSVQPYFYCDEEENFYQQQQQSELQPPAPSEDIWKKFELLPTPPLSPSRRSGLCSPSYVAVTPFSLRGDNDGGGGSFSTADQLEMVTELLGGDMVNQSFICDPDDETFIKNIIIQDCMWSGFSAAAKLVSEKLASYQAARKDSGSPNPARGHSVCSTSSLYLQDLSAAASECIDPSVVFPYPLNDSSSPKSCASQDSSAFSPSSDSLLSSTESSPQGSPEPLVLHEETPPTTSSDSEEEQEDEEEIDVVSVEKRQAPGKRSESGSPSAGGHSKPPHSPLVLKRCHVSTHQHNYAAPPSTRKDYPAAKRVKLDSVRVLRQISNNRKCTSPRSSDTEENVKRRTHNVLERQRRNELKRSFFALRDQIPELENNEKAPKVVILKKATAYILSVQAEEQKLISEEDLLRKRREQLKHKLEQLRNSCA
Assay: Degradation of MycC protein, 24 h treatment, JESS Western, L363 cells (Example 161)
Assay type: cell-based
Details: L-363 cells, 6 μM

compound="CN(c1nccc(Nc2cc(C3CC3)[nH]n2)n1)C1CC2(C1)CN(Cc1cccc(OC(F)(F)F)c1)C2 [Compound 27]" metric_name="inhibition at 6 µM" result_value="80 to 100%"

In the following, a different compound is considered.
## Task // fetch inhibition at 6 µM given entry CN1CC2(CC(N(C)c3nccc(Nc4cc(C5CC5)[nH]n4)n3)C2)C1 [Compound 7]
## Result 80 to 100%

* * *

Biological target: MycN protein (Homo sapiens)
Construct: either 2×10^6 of L-363 (human leukemia cell line) or SKNBE2 (neuroblastoma cell line) cells; endogenous in cells; host or cells: SKNBE2 / SK-N-BE(2) neuroblastoma cells
Sequence (P04198 1-464): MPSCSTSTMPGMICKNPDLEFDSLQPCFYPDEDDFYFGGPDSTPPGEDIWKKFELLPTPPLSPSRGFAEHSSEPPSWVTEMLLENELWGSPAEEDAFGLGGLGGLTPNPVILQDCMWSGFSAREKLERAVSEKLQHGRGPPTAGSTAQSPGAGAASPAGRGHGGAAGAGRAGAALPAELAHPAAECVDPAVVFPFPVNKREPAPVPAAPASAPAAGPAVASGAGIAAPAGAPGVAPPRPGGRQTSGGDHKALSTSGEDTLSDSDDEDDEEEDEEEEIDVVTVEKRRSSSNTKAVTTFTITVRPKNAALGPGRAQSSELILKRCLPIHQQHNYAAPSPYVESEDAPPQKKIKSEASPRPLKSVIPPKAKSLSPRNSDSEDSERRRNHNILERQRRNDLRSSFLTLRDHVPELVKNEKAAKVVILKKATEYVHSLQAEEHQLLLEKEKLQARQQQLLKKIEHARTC
Test: Degradation of MycN protein, Western blot, SKNBE2 cells (Example 160)
Format: cell-based
Settings: SKNBE2, 6 h
metric_name: inhibition at 2 µM

Would you please look over these solved cases?
molecule=CN(c1nccc(Nc2cc(C3CC3)[nH]n2)n1)[C@H]1CC[C@H](NC(=O)C2Cc3ccccc3C2)CC1 metric_name="inhibition at 2 µM" result_value="50 to 79%"
molecule=CN(c1nccc(Nc2cc(C3CC3)[nH]n2)n1)[C@H]1CC[C@H](NC(=O)N2Cc3cc(F)c(F)cc3C2)CC1 metric_name="inhibition at 2 µM" result_value="50 to 79%"

## Task Give inhibition at 2 µM for CN(c1nccc(Nc2cc(C3CC3)[nH]n2)n1)[C@H]1CC[C@H](C(=O)NCc2cccc(C(F)(F)F)c2)CC1 tested on MycN protein (Homo sapiens).
## Result 80 to 100%

## Task Give inhibition at 2 µM for CN(c1cc(C2CC2)[nH]n1)c1ccnc(N(C)[C@H]2CC[C@H](NC(=O)C3Cc4ccccc4C3)CC2)n1 tested on MycN protein (Homo sapiens).
## Result < 20%

## Task Give inhibition at 2 µM for CN(c1nccc(Nc2cc(C3CC3)[nH]n2)n1)[C@H]1CC[C@H](NC(=O)c2nc3ccccn3n2)CC1 tested on MycN protein (Homo sapiens).
## Result 80 to 100%

## Task Give inhibition at 2 µM for CN(c1nccc(Nc2cc(C3CC3)[nH]n2)n1)[C@H]1CC[C@H](NC(=O)C2CCc3ccccc32)CC1 (some centres unmarked) tested on MycN protein (Homo sapiens).
## Result 50 to 79%

## Task Give inhibition at 2 µM for CN(c1nccc(Nc2cc(C3CC3)[nH]n2)n1)[C@H]1CC[C@H](C(=O)NCC2Cc3ccccc3C2)CC1 tested on MycN protein (Homo sapiens).
## Result 50 to 79%

## Task Give inhibition at 2 µM for CN(c1nccc(Nc2cc(C3CCCC3)[nH]n2)n1)[C@H]1CC[C@H](NC(=O)CC2Cc3ccccc3C2)CC1 tested on MycN protein (Homo sapiens).
## Result 20 to 49%

## Task Give inhibition at 2 µM for CN(c1nccc(Nc2cc(C3CCCC3)[nH]n2)n1)[C@H]1CC[C@H](NC(=O)Cc2cccc(C(F)(F)F)c2)CC1 tested on MycN protein (Homo sapiens).
## Result 50 to 79%

## Task Give inhibition at 2 µM for CN(c1nccc(Nc2cc(C3CC3)[nH]n2)n1)C1CCN(CC(=O)Nc2cn(C3COC3)cn2)CC1 tested on MycN protein (Homo sapiens).
## Result 50 to 79%

* * *

inhibition at 2 µM values, listed per item
Target: MycC protein (Homo sapiens, UniProt P01106)
Construct: either 2×10^6 of L-363 (human leukemia cell line) or SKNBE2 (neuroblastoma cell line) cells; endogenous in cells; host or cells: L-363 / L363 human leukemia cells
Sequence (P01106 whole entry): as the sequence (P01106 whole entry) above
Experiment: Degradation of MycC protein, Western blot, L-363 cells (Example 160)
Format: cell-based
Conditions: 6 h

Would you please look over these solved cases?
compound="CN(c1nccc(Nc2cc(C3CC3)[nH]n2)n1)[C@H]1CC[C@H](NS(=O)(=O)c2cccc(C#N)c2)CC1 [Compound 154]" metric_name="inhibition at 2 µM" result_value="80 to 100%"
compound="CN(c1nccc(Nc2cc(C3CC3)[nH]n2)n1)[C@H]1CC[C@H](C(=O)NCc2cccc(C(F)(F)F)c2)CC1 [Compound 127]" metric_name="inhibition at 2 µM" result_value="80 to 100%"
compound="Cn1cc(C(=O)N[C@H]2CC[C@H](N(C)c3nccc(Nc4cc(C5CC5)[nH]n4)n3)CC2)nn1 [Compound 140]" metric_name="inhibition at 2 µM" result_value="80 to 100%"
compound="CN(c1nccc(Nc2cc(C3CC3)[nH]n2)n1)[C@H]1CC[C@H](NC(=O)c2cn(CC3(C)COC3)nn2)CC1 [Compound 150]" metric_name="inhibition at 2 µM" result_value="80 to 100%"
compound="CN(c1nccc(Oc2cc(C3CCCC3)[nH]n2)n1)C1CCC(NC(=O)Cc2cccc(C(F)(F)F)c2)CC1 (centres unmarked) [Compound 131]" metric_name="inhibition at 2 µM" result_value="< 20%"

## Task Give inhibition at 2 µM for CN(c1nccc(Nc2cc(C3CC3)[nH]n2)n1)[C@H]1CC[C@H](NS(=O)(=O)c2ccc(C#N)cn2)CC1 [Compound 156] tested on MycC protein (Homo sapiens, UniProt P01106).
## Result 80 to 100%

## Task Give inhibition at 2 µM for CN(c1nccc(Nc2cc(C3CC3)[nH]n2)n1)[C@H]1CC[C@H](NC(=O)C2CCc3ccccc32)CC1 (some centres unmarked) [Compound 112] tested on MycC protein (Homo sapiens, UniProt P01106).
## Result 80 to 100%

## Task Give inhibition at 2 µM for Cn1nnc(CNC(=O)[C@H]2CC[C@H](N(C)c3nccc(Nc4cc(C5CC5)[nH]n4)n3)CC2)n1 [Compound 144] tested on MycC protein (Homo sapiens, UniProt P01106).
## Result 80 to 100%

## Task Give inhibition at 2 µM for CN(c1cc(C2CC2)[nH]n1)c1ccnc(N(C)[C@H]2CC[C@H](NC(=O)c3nnn(C)n3)CC2)n1 [Compound 147] tested on MycC protein (Homo sapiens, UniProt P01106).
## Result 20 to 49%

## Task Give inhibition at 2 µM for CN1CC2(CC(N(C)c3nccc(Nc4cc(C5CC5)[nH]n4)n3)C2)C1 [Compound 7] tested on MycC protein (Homo sapiens, UniProt P01106).
## Result 20 to 49%

* * *

Target: MycN protein (Homo sapiens, UniProt P04198)
Construct: either 2×10^6 of L-363 (human leukemia cell line) or SKNBE2 (neuroblastoma cell line) cells; endogenous in cells; host or cells: SKNBE2 / SK-N-BE(2) neuroblastoma cells
Sequence (P04198 1-464): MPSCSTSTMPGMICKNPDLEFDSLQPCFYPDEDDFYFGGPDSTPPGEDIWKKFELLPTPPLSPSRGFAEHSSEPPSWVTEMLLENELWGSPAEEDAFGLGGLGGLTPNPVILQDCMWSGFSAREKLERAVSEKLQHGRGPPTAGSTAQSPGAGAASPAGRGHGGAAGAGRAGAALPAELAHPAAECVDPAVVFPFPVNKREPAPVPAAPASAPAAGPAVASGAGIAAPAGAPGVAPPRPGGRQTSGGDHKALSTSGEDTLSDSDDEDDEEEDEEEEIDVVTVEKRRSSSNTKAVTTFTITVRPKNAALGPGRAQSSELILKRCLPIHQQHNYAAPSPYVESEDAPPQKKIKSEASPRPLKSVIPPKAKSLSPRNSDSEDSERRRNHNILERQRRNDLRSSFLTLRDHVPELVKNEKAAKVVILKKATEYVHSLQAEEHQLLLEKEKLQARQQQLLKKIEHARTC
Assay: Degradation of MycN protein, Western blot, SKNBE2 cells (Example 160)
Assay type: cell-based
Details: SKNBE2, 6 h
inhibition at 2 µM values, listed per item

Would you please look over these solved cases?
compound="CN(c1nccc(Nc2cc(C3CC3)[nH]n2)n1)C1CCC(CC(=O)Nc2cn(C3COC3)cn2)CC1 (centres unmarked)" metric_name="inhibition at 2 µM" result_value="80 to 100%"
compound=CN(c1nccc(Nc2cc(C3CC3)[nH]n2)n1)[C@H]1CC[C@H](NC(=O)Cc2cccc(S(C)(=O)=O)c2)CC1 metric_name="inhibition at 2 µM" result_value="< 20%"
compound=CN(c1nccc(Nc2cc(C3CC3)[nH]n2)n1)C1CCN(CC(=O)Nc2cccc(S(C)(=O)=O)c2)CC1 metric_name="inhibition at 2 µM" result_value="50 to 79%"
compound="CN(c1cc(C2CC2)[nH]n1)c1ccnc(N(C)[C@H]2CC[C@H](NC(=O)C3CCc4ccccc43)CC2)n1 (some centres unmarked)" metric_name="inhibition at 2 µM" result_value="< 20%"
compound=Cn1nnc(CNC(=O)[C@H]2CC[C@H](N(C)c3nccc(Nc4cc(C5CC5)[nH]n4)n3)CC2)n1 metric_name="inhibition at 2 µM" result_value="80 to 100%"

## Task // fetch inhibition at 2 µM given entry Cc1cnc(CC(=O)NC2CCC(N(C)c3nccc(Nc4cc(C5CC5)[nH]n4)n3)CC2)cn1 (centres unmarked)
## Result 50 to 79%

## Task // fetch inhibition at 2 µM given entry CN(c1cc(C2CC2)[nH]n1)c1ccnc(N(C)[C@H]2CC[C@H](NC(=O)c3nnn(C)n3)CC2)n1
## Result < 20%
